compounds and their reported %Inh
# System: CSF1R-autoinhibited;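 note: KINOMEscan kinase panel screen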
# Protocol conditions: concentration: 1 μM, replicates: in singlicate; n = 1

{"Smiles structure": "Cl.c1ccc(Cn2ccc3cc(Nc4ncnc5ccccc45)ccc32)cc1", "Tgt": "CSF1R-autoinhibited", "Measurement units": "%", "%Inh": 0}
{"Smiles structure": "CCn1c(-c2ccncc2)nc2cnccc21", "Tgt": "CSF1R-autoinhibited", "Measurement units": "%", "%Inh": 47}
{"Smiles structure": "Fc1cccc(COc2ccc(Nc3ncnc4sc(-c5ccc[nH]5)cc34)cc2Cl)c1", "Tgt": "CSF1R-autoinhibited", "Measurement units": "%", "%Inh": 28}
{"Smiles structure": "N#Cc1ccc(Oc2ccc(Nc3ncnc4cc[nH]c34)cc2Cl)cc1", "Tgt": "CSF1R-autoinhibited", "Measurement units": "%", "%Inh": 3}
{"Smiles structure": "CC(C)N1CCC(n2cnc(-c3ccc(F)cc3)c2-c2ccnc(N)n2)CC1", "Tgt": "CSF1R-autoinhibited", "Measurement units": "%", "%Inh": 0}
{"Smiles structure": "Cn1ccc2ncnc(Oc3ccc(NC(=O)Nc4cccnc4)c(Cl)c3)c21", "Tgt": "CSF1R-autoinhibited", "Measurement units": "%", "%Inh": 0}
{"Smiles structure": "Cc1ccc(O)cc1Nc1cc(C(F)(F)F)nc2ccc(-c3ccncc3)cc12", "Tgt": "CSF1R-autoinhibited", "Measurement units": "%", "%Inh": 0}
{"Smiles structure": "CS(=O)(=O)CCNCc1ccc(-c2ccc3ncnc(Nc4ccc(OCc5ccccc5)c(Cl)c4)c3c2)o1.Cl", "Tgt": "CSF1R-autoinhibited", "Measurement units": "%", "%Inh": 7}
{"Smiles structure": "Cl.Fc1ccccc1COc1ccc(Nc2ncnc3ccc(-c4nnc(C(F)(F)F)o4)cc23)cc1Cl", "Tgt": "CSF1R-autoinhibited", "Measurement units": "%", "%Inh": 0}
